# System: NSCLC A549 cell line
# protocol.text: MTT assay against human tumor NSCLC A549 cell line
# Format: cell-based
recorded.metric: IC50 (nM)

Some solved entries appear below for comparison.
compound	recorded.metric	recorded.measurement
CNC(=O)c1cccc2cc(Oc3ccnc4cc(OCCN5CC6(CC6)C6(C5)OCCO6)c(OC)cc34)ccc12 [Example 21]	IC50	800
CNC(=O)c1c(C)oc2cc(Oc3ccnc4cc(OCCN5CC6(CC6)C6(C5)OCCO6)c(OC)cc34)ccc12 [Example 11]	IC50	200
COc1cc2c(Oc3ccc4[nH]c(C)cc4c3F)ccnc2cc1OCCCN1CC2(CC2)C2(C1)OCCO2 [Example 6]	IC50	80

(P) CNC(=O)c1c(C)oc2cc(Oc3ccnc4cc(OCCCN5CC6(CC6)C6(C5)OCCO6)c(OC)cc34)ccc12 [Example 16]
(Q) CNC(=O)c1c(C)oc2cc(Oc3ccnc4cc(OCCCN5CC(=O)C6(CC6)C5)c(OC)cc34)ccc12 [Example 17]
Would you let me know which has the greater IC50 value, P or Q ? Lab log: write the label of the selected item as the result.
Q
(Q: 300 nM, P: 200 nM)

* * *

# Test system: NSCLC A549 cell line
# protocol.text: MTT assay against human tumor NSCLC A549 cell line
# Type: cell-based
# experimental.setup: Homo sapiens
pIC50: −log10 of the molar value.
recorded.metric: pIC50

Some solved entries appear below for comparison.
compound	pIC50
COc1cc2c(Oc3ccc4[nH]c(C)cc4c3F)ccnc2cc1OCCCN1CC(=O)C2(CC2)C1	7.05
CNC(=O)c1cccc2cc(Oc3ccnc4cc(OCCN5CC(O)C6(CC6)C5)c(OC)cc34)ccc12 (stereo not shown)	6.10

(P) COc1cc2c(Oc3ccc4[nH]c(C)cc4c3F)ccnc2cc1OCCN1CC(=O)C2(CC2)C1
(Q) CNC(=O)c1c(C)oc2cc(Oc3ccnc4cc(OCCN5CC(OC)C6(CC6)C5)c(OC)cc34)ccc12 (stereo not shown)
Lab log: flag the item ( P or Q ) with the smaller pIC50 figure. Lab log: write the label of the selected item as the result.
Q
(Q: 6.70, P: 7.00)

* * *

# System: colon LOVO cell line
# protocol.text: MTT assay against colon LOVO cell line
# Type: cell-based, human
# experimental.setup: Homo sapiens
pIC50: −log10 of the molar value.
recorded.metric: pIC50

Some solved entries appear below for comparison.
compound	pIC50
C=C1CN(CCOc2cc3nccc(Oc4ccc5[nH]c(C)cc5c4F)c3cc2OC)CC12CC2	6.40
COc1cc2c(Oc3ccc4[nH]c(C)cc4c3F)ccnc2cc1OCCN1CC(O)C2(CC2)C1 (stereo not shown)	6.40

(1) C=C1CN(CCOc2cc3nccc(Oc4ccc5c(C(=O)NC)cccc5c4)c3cc2OC)CC12CC2
(2) CNC(=O)c1cccc2cc(Oc3ccnc4cc(OCCN5CC(OC)C6(CC6)C5)c(OC)cc34)ccc12 (stereo not shown)
Lab log: flag the item ( 1 or 2 ) with the smaller pIC50 figure. Lab log: write the label of the selected item as the result.
2
(2: 5.82, 1: 6.05)

(A) CNC(=O)c1c(C)oc2cc(Oc3ccnc4cc(OCCN5CC(O)C6(CC6)C5)c(OC)cc34)ccc12 (stereo not shown)
(B) C=C1CN(CCCOc2cc3nccc(Oc4ccc5[nH]c(C)cc5c4F)c3cc2OC)CC12CC2
Would you let me know which has the greater pIC50 value, A or B ? Lab log: write the label of the selected item as the result.
B

(1) CNC(=O)c1cccc2cc(Oc3ccnc4cc(OCCCN5CC(=O)C6(CC6)C5)c(OC)cc34)ccc12
(2) COc1cc2c(Oc3ccc4[nH]c(C)cc4c3F)ccnc2cc1OCCN1CC(OC)C2(CC2)C1 (stereo not shown)
Would you let me know which has the greater pIC50 value, 1 or 2 ? Lab log: write the label of the selected item as the result.
2

* * *

# Tested on: colon LOVO cell line
# protocol.text: MTT assay against colon LOVO cell line
# Assay type: cell-based, human
# experimental.setup: Homo sapiens
pIC50: −log10 of the molar value.
recorded.metric: pIC50

Some solved entries appear below for comparison.
compound	test.target	recorded.measurement
CNC(=O)c1cccc2cc(Oc3ccnc4cc(OCCCN5CC(OC)C6(CC6)C5)c(OC)cc34)ccc12 (centres unmarked)	colon LOVO cell line	6.05
C=C1CN(CCCOc2cc3nccc(Oc4ccc5c(C(=O)NC)c(C)oc5c4)c3cc2OC)CC12CC2	colon LOVO cell line	6.05
C=C1CN(CCOc2cc3nccc(Oc4ccc5c(C(=O)NC)c(C)oc5c4)c3cc2OC)CC12CC2	colon LOVO cell line	6.05

(P) CNC(=O)c1c(C)oc2cc(Oc3ccnc4cc(OCCCN5CC(OC)C6(CC6)C5)c(OC)cc34)ccc12 (centres unmarked)
(Q) CNC(=O)c1cccc2cc(Oc3ccnc4cc(OCCN5CC(O)C6(CC6)C5)c(OC)cc34)ccc12 (centres unmarked)
Would you let me know which has the greater pIC50 value, P or Q ? Lab log: write the label of the selected item as the result.
P
